- APPLIED CONDITIONS: in cyclohexane, 293.15 K
EXPERIMENTAL READOUT: solubility (mole fraction)
Answer with a number only.

The compound listed as `COC(=O)C(C)(C)N=NC(C)(C)C(=O)OC` has a reported solubility (mole fraction) of 0.677

* * *

- APPLIED CONDITIONS: in diethyl ether, 290.45 K
EXPERIMENTAL READOUT: solubility (mole fraction)
Answer with a number only.

The compound listed as `COC(=O)C(C)(C)N=NC(C)(C)C(=O)OC` has a reported solubility (mole fraction) of 0.667

* * *

- APPLIED CONDITIONS: in acetone, 278.25 K
EXPERIMENTAL READOUT: solubility (mole fraction)

The compound listed as `COC(=O)C(C)(C)N=NC(C)(C)C(=O)OC` has a reported solubility (mole fraction) of 0.352
